- TESTED TARGET: EGFR bearing the L858R/T790M double mutation (Homo sapiens, UniProt P00533, L858R/T790M)
- Sequence (P00533 25-1210 T790M/L858R): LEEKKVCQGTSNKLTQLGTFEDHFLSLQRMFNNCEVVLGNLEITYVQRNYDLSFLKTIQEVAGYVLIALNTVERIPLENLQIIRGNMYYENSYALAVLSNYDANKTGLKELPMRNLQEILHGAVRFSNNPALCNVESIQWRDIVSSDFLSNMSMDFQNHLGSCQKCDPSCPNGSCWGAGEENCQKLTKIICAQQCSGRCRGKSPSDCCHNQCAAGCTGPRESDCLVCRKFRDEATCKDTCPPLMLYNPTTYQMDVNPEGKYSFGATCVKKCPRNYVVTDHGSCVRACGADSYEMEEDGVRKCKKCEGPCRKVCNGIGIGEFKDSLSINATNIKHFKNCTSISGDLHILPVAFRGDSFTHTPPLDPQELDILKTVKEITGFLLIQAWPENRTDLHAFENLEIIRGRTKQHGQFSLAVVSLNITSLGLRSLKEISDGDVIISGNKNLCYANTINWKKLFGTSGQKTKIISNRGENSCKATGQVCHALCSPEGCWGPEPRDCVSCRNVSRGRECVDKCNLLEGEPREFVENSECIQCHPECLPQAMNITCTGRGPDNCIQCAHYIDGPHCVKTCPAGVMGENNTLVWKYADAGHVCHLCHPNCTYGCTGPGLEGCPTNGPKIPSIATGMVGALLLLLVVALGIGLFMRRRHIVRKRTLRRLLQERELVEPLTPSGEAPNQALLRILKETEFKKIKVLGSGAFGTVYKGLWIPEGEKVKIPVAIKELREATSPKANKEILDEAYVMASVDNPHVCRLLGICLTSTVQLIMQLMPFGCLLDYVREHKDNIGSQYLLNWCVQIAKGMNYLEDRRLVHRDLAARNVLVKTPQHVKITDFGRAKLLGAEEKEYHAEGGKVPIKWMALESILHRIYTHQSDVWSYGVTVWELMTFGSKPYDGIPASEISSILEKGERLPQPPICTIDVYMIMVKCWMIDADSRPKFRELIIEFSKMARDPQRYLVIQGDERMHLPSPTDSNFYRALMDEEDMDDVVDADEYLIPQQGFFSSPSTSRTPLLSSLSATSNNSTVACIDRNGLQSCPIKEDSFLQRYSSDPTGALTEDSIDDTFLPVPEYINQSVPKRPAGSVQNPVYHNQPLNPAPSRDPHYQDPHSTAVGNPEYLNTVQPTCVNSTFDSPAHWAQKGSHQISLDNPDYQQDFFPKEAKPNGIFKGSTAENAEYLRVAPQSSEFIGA
- METHOD SUMMARY: Kinase inhibition, EGFR L858R/T790M
- Assay type: biochemical
- CONDITION SUMMARY: 10 μM ATP; 10 pt curves, 3 μM top concentration (singlicates)
ENDPOINT NAME: IC50

Below, each entry is followed by its recorded IC50 result.
>>> observed_measurement("C=CC(=O)Nc1ccc(OC)c(Nc2ncc(C3CC3)c(Nc3ccccc3P(C)(C)=O)n2)c1")
"< 51 nM"
>>> observed_measurement("C=CC(=O)Nc1ccc(OC)c(Nc2nccc(Nc3ccccc3P(C)(C)=O)n2)c1")
"< 51 nM"
>>> observed_measurement("C=CC(=O)Nc1cccc(Oc2nc(Nc3ccc(P(C)(C)=O)cc3OC)ncc2Cl)c1")
"< 51 nM"
>>> observed_measurement("C=CC(=O)Nc1ccc(OC)c(Nc2ncc(Cl)c(Nc3cccc(C)c3P(C)(C)=O)n2)c1")
"< 51 nM"
>>> observed_measurement("C=CC(=O)Nc1cc(Nc2ncc(Cl)c(Nc3ccccc3P(C)(C)=O)n2)c(OC)cc1OCCN(C)CCOC")
"< 51 nM"
>>> observed_measurement("C=CC(=O)Nc1cc(Nc2ncc(Cl)c(Nc3ccccc3P(C)(C)=O)n2)c(OC)cc1N(C)CCN(CC)CC")
"< 51 nM"

Q) Report IC50 for `C=C(CNc1ccc(OC)c(Nc2ncc(Cl)c(Nc3ccccc3P(C)(C)=O)n2)c1)C(=O)OC`
A) 101 to 250 nM

Q) Report IC50 for `C#CC(=O)Nc1ccc(OC)c(Nc2ncc(Cl)c(Nc3ccccc3P(C)(C)=O)n2)c1`
A) < 51 nM

Q) Report IC50 for `C=CC(=O)Nc1cc(Nc2ncc(Cl)c(Nc3ccccc3P(C)(C)=O)n2)c(OC)cc1CCCN(CC)CC`
A) < 51 nM

Q) Report IC50 for `C=CC(=O)Nc1cccc(Nc2ncc(Cl)c(Nc3ccccc3P(C)(C)=O)n2)c1`
A) < 51 nM

Just for reference, patent US9834518B2 is where these values come from.
